# maps each entry to its Ki
biological target: MCH receptor (MCH1) (Macaca fascicularis, UniProt A0A2K5VT41); experiment: Melanin concentrating hormone receptor binding assay (125I-Tyr MCH competition, membranes of transfected HEK293 cells); parameters: species or system Cynomolgus macaque
Sequence (A0A2K5VT41 entry or part of it): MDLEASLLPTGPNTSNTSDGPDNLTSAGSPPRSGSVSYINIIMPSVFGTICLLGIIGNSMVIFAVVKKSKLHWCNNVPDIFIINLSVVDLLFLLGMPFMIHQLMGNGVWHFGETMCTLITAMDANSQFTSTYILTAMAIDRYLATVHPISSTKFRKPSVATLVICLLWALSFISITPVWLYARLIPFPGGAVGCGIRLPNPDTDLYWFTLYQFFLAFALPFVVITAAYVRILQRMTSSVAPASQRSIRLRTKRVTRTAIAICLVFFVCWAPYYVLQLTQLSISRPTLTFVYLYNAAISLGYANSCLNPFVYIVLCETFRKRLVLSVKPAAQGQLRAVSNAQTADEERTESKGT
PROPERTY: Ki

| STRUCTURE NOTATION | PROPERTY | RECORDED MEASUREMENT |
| --- | --- | --- |
| COc1cc2c(cc1OC)CN(Cc1cccc(Oc3ccc(C)cc3)c1)CC2 | Ki | < 1000 nM |
| COc1cc2c(cc1OC)CN(Cc1ccnc(Oc3ccc(C(C)(C)C)cc3)c1)CC2 | Ki | < 1000 nM |
| COc1cc2c(cc1OC)CN(Cc1cccc(Oc3ccc(C(C)(C)C)cc3)c1)CC2 | Ki | < 1000 nM |
